Test system: Reconstructed Human Epidermis
Protocol Summary: In vitro skin irritation: reconstructed human epidermis test (OECD TG 439)
Type: cell-based
Test Readout: log10 IL-1α content (log10 of the value in pg/mL)

Compound	log10 IL-1α content
CCCCCCCCCCCC(=O)NC(C)C(=O)[O-].[Na+] (centres unmarked)	0.59
CCCCCCCCCCCC(=O)N[C@@H](C)C(=O)O.N=C(N)NCCC[C@H](N)C(=O)O	0.54
CCCCCCCCCCCCOS(=O)(=O)[O-].[Na+] [Positive control (PC)]	1.95
CCCCCCCCCCCCOS(=O)(=O)[O-].[Na+] [Sodium dodecyl sulfate (K12), Sodium dodecyl sulfate]	1.98
CCCCCCCCCCCC(=O)N[C@@H](C)C(=O)O	0.32

###

Viability Mean reference
Test system: Reconstructed Human Epidermis
Protocol Summary: In vitro skin irritation: reconstructed human epidermis test (OECD TG 439)
Type: cell-based

Compound	System Under Test	Viability Mean / %
CCCCCCCCCCCC(=O)NC(C)C(=O)[O-].[Na+] (stereo not shown) [LA-NaOH]	Reconstructed Human Epidermis	86.99
CCCCCCCCCCCC(=O)N[C@@H](C)C(=O)O [Lauroyl alanine (LA), Lauroyl alanine]	Reconstructed Human Epidermis	95.52
CCCCCCCCCCCCOS(=O)(=O)[O-].[Na+] [Positive control (PC)]	Reconstructed Human Epidermis	4.03
CCCCCCCCCCCC(=O)N[C@@H](C)C(=O)O.N=C(N)NCCC[C@H](N)C(=O)O [LA-Arg]	Reconstructed Human Epidermis	97.40

Origin of measurements: patent EP4740933A1
